Values from patent US6683077B2

# measurement-target: Human leukocyte elastase (HLE) (Homo sapiens, UniProt P08246)
# Construct: gift of R. Senior, Washington University
# Sequence (P08246 30-267): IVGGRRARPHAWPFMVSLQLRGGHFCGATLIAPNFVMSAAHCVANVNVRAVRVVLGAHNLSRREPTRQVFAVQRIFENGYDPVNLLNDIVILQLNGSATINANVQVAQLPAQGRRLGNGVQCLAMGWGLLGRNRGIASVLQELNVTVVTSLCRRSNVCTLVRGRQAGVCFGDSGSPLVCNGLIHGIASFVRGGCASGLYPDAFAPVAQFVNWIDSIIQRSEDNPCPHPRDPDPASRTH
# assay-explanation: Human leukocyte elastase assay
# Assay type: biochemical
# stated-conditions: @ 1 (concentration unit not given)
Reported HLE, % @ concentration values are given for each entry in this list.
Answer in % @ 1, number only, no unit symbol.

Exercise: Name the recorded HLE, % @ concentration for COc1ccc(C[C@H](Nc2nc3ccc(CNC(=O)OC(C)(C)C)c(C)c3c(=O)o2)C(=O)N(C)CCc2ccccc2)cc1 .
Solution: 39

Exercise: Name the recorded HLE, % @ concentration for COc1ccc(C[C@H](Nc2nc3ccc(CNC(=O)OCc4ccncc4)c(C)c3c(=O)o2)C(=O)N(C)Cc2ccccc2)cc1 [Example 18d] .
Solution: 55

Exercise: Name the recorded HLE, % @ concentration for Cc1c(CNC(=O)OCc2ccccc2)ccc2nc(N[C@@H](Cc3ccccc3)C(=O)N(C)Cc3ccccc3)oc(=O)c12 .
Solution: 47

Exercise: Name the recorded HLE, % @ concentration for Cc1c(CNC(=O)NCc2ccccc2)ccc2nc(N[C@@H](Cc3ccccc3)C(=O)N(C)Cc3ccccc3)oc(=O)c12 [Example 12h] .
Solution: 58

====

# measurement-target: Human leukocyte elastase (HLE) (Homo sapiens, UniProt P08246)
# Construct: gift of R. Senior, Washington University
# Sequence (P08246 30-267): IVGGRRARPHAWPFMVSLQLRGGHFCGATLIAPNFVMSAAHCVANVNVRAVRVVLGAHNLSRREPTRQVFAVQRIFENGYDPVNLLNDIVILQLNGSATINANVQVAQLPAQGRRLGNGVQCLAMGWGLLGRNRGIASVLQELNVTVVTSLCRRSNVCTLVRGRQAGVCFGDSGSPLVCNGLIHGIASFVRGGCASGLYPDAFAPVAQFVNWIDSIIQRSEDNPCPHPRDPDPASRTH
# assay-explanation: Human leukocyte elastase assay
# Assay type: biochemical
# stated-conditions: @ 10 (concentration unit not given)
experimental-readout: HLE, % @ concentration (% @ 10)
Answer in % @ 10, number only, no unit symbol.

Exercise: Enter reported HLE, % @ concentration observed with Human leukocyte elastase (HLE) (Homo sapiens, UniProt P08246) for Cc1c(CNC(=O)OC(C)(C)C)ccc2nc(N[C@@H](Cc3ccccc3)C(=O)N(C)c3ccccc3)oc(=O)c12 [Example 7m]
Solution: 55

Exercise: Enter reported HLE, % @ concentration observed with Human leukocyte elastase (HLE) (Homo sapiens, UniProt P08246) for Cc1c(CNC(=O)OCc2ccccc2)ccc2nc(N[C@@H](Cc3ccccc3)C(=O)N(C)CCc3ccccc3)oc(=O)c12 [Example 9dd]
Solution: 78

Exercise: Enter reported HLE, % @ concentration observed with Human leukocyte elastase (HLE) (Homo sapiens, UniProt P08246) for COc1ccc(C[C@H](Nc2nc3ccc(NS(=O)(=O)c4ccccc4)c(C)c3c(=O)o2)C(=O)N(C)Cc2ccccc2)cc1 [Example 13c]
Solution: 39

Exercise: Enter reported HLE, % @ concentration observed with Human leukocyte elastase (HLE) (Homo sapiens, UniProt P08246) for Cc1c(CNC(=O)OC(C)(C)C)ccc2nc(N[C@@H](Cc3ccccc3)C(=O)N(C)CCc3ccccc3)oc(=O)c12 [Example 7v]
Solution: 53

Exercise: Enter reported HLE, % @ concentration observed with Human leukocyte elastase (HLE) (Homo sapiens, UniProt P08246) for Cc1ccc(S(=O)(=O)NCc2cc(Br)c3nc(N[C@@H](Cc4ccccc4)C(=O)N(C)Cc4ccccc4)oc(=O)c3c2C)cc1 [Example 13d]
Solution: 87

Exercise: Enter reported HLE, % @ concentration observed with Human leukocyte elastase (HLE) (Homo sapiens, UniProt P08246) for COc1ccc(C[C@H](Nc2nc3ccc(NC(=O)c4ccccn4)c(C)c3c(=O)o2)C(=O)N(C)Cc2ccccc2)cc1 [Example 11p]
Solution: 40

Shift focus to the following entry.
Exercise: Enter reported HLE, % @ concentration observed with Human leukocyte elastase (HLE) (Homo sapiens, UniProt P08246) for COc1ccc(C[C@H](Nc2nc3ccc(CNC(=O)OC(C)(C)C)c(C)c3c(=O)o2)C(=O)N2CCCC2)cc1 [Example 7g]
Solution: 39
